tested on: SF-268 CNS; assay: NCI tumour cell line growth inhibition, 48 h
The following compounds are shown together with reported TGI values.

Compound	TGI
Cc1ccc2c(c1)nc(C(=O)c1ccco1)c(C(F)(F)F)[n+]2[O-]	> 100 µM
COC(C[C@H]1CCCC[C@]1(O)/C(=C\CO[Si](C(C)C)(C(C)C)C(C)C)Sc1ccccc1)OC	> 100 µM
OCCCCC#Cc1ccccc1C#Cc1ccccc1	37.6 µM
COc1ccc(C(=O)/C=C/c2ccc(OCCCOc3ccc(/C=C/C(=O)c4ccc(OC)c(OC)c4)cc3)cc2)cc1OC	> 100 µM
CC(C)NCCNC(=O)c1ccccc1Nc1c(Cl)cccc1Cl	34.1 µM
CN1C(=O)C(CCO)(C(C)(C)C)c2ccccc21 (stereo unspecified)	> 100 µM
O=C1c2cccc3cc([N+](=O)[O-])cc(c23)C(=O)N1CCNCCNCCNCCN1C(=O)c2cccc3cc([N+](=O)[O-])cc(c23)C1=O	0.7 µM
CCC1(O)CC(O)c2c(O)c3c(c(O)c2C1C(=O)OC)C(=O)c1cccc(O)c1C3=O (stereo unspecified)	16.2 µM

Q) So what's the measured TGI for this one? O=C(NCCNCCO)N/N=C/c1ccccc1
A) > 100 µM

Q) Likewise for O=c1cccc(C#CC#C[C@H]2O[C@@H]2CO)o1 ?
A) 7.51 µM

Q) Ok, now COP(=O)(OC)C(NC(c1ccccc1)c1ccccc1)c1ccc2c(c1)OCO2 (stereo unspecified)
A) 91.8 µM

* * *

system: SR leukemia; assay: NCI tumour cell line growth inhibition, 48 h; in the data active = GI50 below about 0.43 µM; inactive = the rest
Select the matching outcome among Yes for active, No for inactive

Compound	Class assignment
COc1ccc(-n2c(SCc3cc(OC)c(OC)c(OC)c3)nc3ccc(C)cc3c2=O)c(OC)c1	No
Cc1ccc(C(=O)Nc2ccc(CN3CCN(C)CC3)c(C(F)(F)F)c2)cc1C#Cc1cnc(N)cc1C#N	Yes
NC(=O)c1cnc(N[C@@H]2CCCC[C@@H]2N)nc1Nc1cccc(-n2nccn2)c1	No

Q) Recorded test call requested for O=c1cccc(C#CC#C[C@H]2O[C@@H]2CO)o1
A) Yes

Q) Similarly, C=C1C(=O)O[C@H]2[C@H]1CC/C(COC(=O)NCc1cc3ccccc3[nH]1)=C\CC[C@@]1(C)O[C@@H]21 ?
A) No

Q) What do we get for C[C@]12CCC3[C@@H](C[C@@H]4SC(Nc5ccccc5)=N[C@@]45CC(=O)CC[C@]35C)[C@@H]1CCC2=O (some centres undefined) ?
A) No

* * *

tested on: NCI/ADR-RES ovarian; assay: NCI tumour cell line growth inhibition, 48 h; in the data active = GI50 below about 0.43 µM; inactive = the rest
Outcomes you can answer with include only these: 1.0 (active), 0.0 (inactive)

For orientation, consider the following solved cases.
Molecule	Class assignment
CC12CCC3C(CC=C4CC(O)CCC43C)C1C/C(=C\N1CCCC1)C2=O (stereo unspecified)	0.0
OCCCCC#Cc1ccccc1C#Cc1ccccc1	0.0
COP(=O)(OC)C(NC(c1ccccc1)c1ccccc1)c1ccc2c(c1)OCO2 (stereo unspecified)	0.0
O=Cc1c(-c2cc(O)ccc2O)nc2sccn12	0.0
CC1=C([Se]CC(OC(=O)CC[Se]c2ccccc2)C(=O)NCCCCCC(=O)OCc2ccccc2)C(=O)c2ccccc2C1=O (stereo unspecified)	0.0
CC(=O)OC[C@H]1O[C@@H](n2ccc(=O)[nH]c2=O)[C@H](OC(C)=O)[C@@H]1OC(C)=O	0.0
N[C@@H](Cc1c[nH]c2ccccc12)C(=O)NC1CCN(C(=O)c2c[nH]c3ccccc23)CC1	0.0
C1CC[N-]CC1.C1CC[N-]CC1.C1CC[N-]CC1.C1CC[N-]CC1.[Cl][Rh][Cl]	0.0
O=c1cccc(C#CC#C[C@H]2O[C@@H]2CO)o1	0.0
CN(C)CCCn1c2c(c3cnccc3c1=O)C(=O)c1ccccc1-2	0.0

Q) Answer briefly: the call reported for CC[C@]1(O)CC2CN(CCc3c([nH]c4ccccc34)[C@@](C(=O)OC)(c3cc4c(cc3OC)N(C)[C@H]3[C@@](O)(C(=O)OC)[C@H](OC(C)=O)[C@]5(CC)C=CCN6CC[C@]43[C@@H]65)C2)C1 (stereo partly specified) in this assay.
A) 1.0

Q) Now the molecule Cc1ccc2c(c1)nc(C(=O)c1ccco1)c(C(F)(F)F)[n+]2[O-]
A) 0.0

Q) Continue with N#Cc1c(C(=O)c2ccccc2)cnn1-c1ccccc1
A) 0.0

Q) Quick one: Cc1cn(C2CC(F)C(CO)O2)c(=O)[nH]c1=O (stereo unspecified)
A) 0.0

Q) Same question for COc1ccccc1-[n+]1cc(-c2ccc(-c3ccccc3)cc2)n2c1CCCCC2 please.
A) 0.0

Q) Same again, this time with Cc1ccc(C(CN(C)C)C(=O)c2ccccc2)cc1 (stereo unspecified)
A) 0.0

Source listed as PubChem BioAssay (NCI).
